The values you see were collected from ChEMBL document CHEMBL1140754.

- Test system: Mythimna separata
- procedure.details: Larvicidal activity against Oriental armyworm
- Type: functional
Define the label as TRUE when LC50 is strictly less than 10 µg/mL and as FALSE in all remaining cases.

Q: Hello, is LC50 of the following molecule strictly smaller than 10 µg/mL? `Cc1cc(C)cc(C(=O)N(NC(=O)c2ccc3c(c2C)OCCO3)C(C)(C)C)c1`
A: TRUE

Q: Hello, is LC50 of the following molecule strictly smaller than 10 µg/mL? `COc1ccc(C(=O)N(NC(=O)c2ccc3c(c2Cl)CCCO3)C(C)(C)C)cc1OC`
A: FALSE

Q: Hello, is LC50 of the following molecule strictly smaller than 10 µg/mL? `COc1cc(C(=O)N(NC(=O)c2ccc3c(c2Cl)CCCO3)C(C)(C)C)cc(OC)c1OC`
A: FALSE

Q: Hello, is LC50 of the following molecule strictly smaller than 10 µg/mL? `CC(C)(C)N(NC(=O)c1ccc2c(c1Cl)CCCO2)C(=O)c1ccc([N+](=O)[O-])cc1`
A: FALSE

Q: Hello, is LC50 of the following molecule strictly smaller than 10 µg/mL? `CC(C)(C)N(NC(=O)c1ccc2c(c1Cl)CCCO2)C(=O)c1ccc(F)cc1F`
A: TRUE

Q: Hello, is LC50 of the following molecule strictly smaller than 10 µg/mL? `COc1cccc(C(=O)N(NC(=O)c2ccc3c(c2Cl)CCCO3)C(C)(C)C)c1`
A: FALSE

Q: Hello, is LC50 of the following molecule strictly smaller than 10 µg/mL? `CC(C)(C)N(NC(=O)c1ccc2c(c1Cl)CCCO2)C(=O)c1ccc(I)cc1`
A: FALSE

Q: Hello, is LC50 of the following molecule strictly smaller than 10 µg/mL? `CC(C)(C)N(NC(=O)c1ccc2c(c1Cl)CCCO2)C(=O)c1ccccc1F`
A: TRUE
